assay: Study for pharmacokinetics in blood after oral administration to rats; assay type: in vivo; conditions: male, Crl: CD (SD), rat, 30 mg/kg, oral 30 mg/kg once daily, Day 4 of administration
Readout Label: AUC(0-t) (µM·h)

[I] O=C(NCc1ccc(F)cc1Cl)[C@]1(F)CC[C@@](O)(CO)c2ncccc21
[II] O=C(NCc1ccc(Cl)cc1Cl)[C@]1(F)CC[C@@](O)(CO)c2ncccc21
-- ask Would you kindly point out which of I and II has the smaller AUC(0-t) figure? // caller expects the label of the chosen entry
-- reply II
(II: 45.6 µM·h, I: 77.4 µM·h)

----------
Test: Study for pharmacokinetics in blood after oral administration to rats
Assay type: in vivo
Details: male, Crl: CD (SD), rat, 30 mg/kg, oral 30 mg/kg once daily, Day 1 of administration
Experimental: Rats (strain: Crl: CD (SD), male, 7 weeks old, with diet) were orally administered a methylcellulose suspension containing a P2X7 receptor antagonist compound (Compound 7 or Compound 10). Then blood was collected from rats 15 and 30 minutes, 1, 2, 4, 8 and 24 hours after the administration, and the concentration of the compound contained in the collected blood was measured. The dose of the compound per dose was 30 mg/kg, and the concentration of the compound in the suspension was 3 mg/mL. […]
Readout Label: Cmax (µM)

[I] O=C(NCc1ccc(F)cc1Cl)[C@]1(F)CC[C@@](O)(CO)c2ncccc21
[II] O=C(NCc1ccc(Cl)cc1Cl)[C@]1(F)CC[C@@](O)(CO)c2ncccc21
-- ask Larger number for Cmax: I , or II ? When you have decided, please share the label of that item.
-- reply I
